All values here come from ChEMBL document CHEMBL4229558.

- target.or.test.system: Transient receptor potential cation channel subfamily V member 2 (Rattus norvegicus)
- method.summary: Antagonist activity at recombinant rat TRPV2 expressed in HEK293 cells assessed as inhibition of CBD-induced Ca2+ levels preincubated for 5 mins followed by agonist addition by Fuo-4-AM based spectrofluorimetry
- Format: cell-based
pIC50: −log10 of the molar value.

# molecule, qualifier.sign, pIC50
records = [
    ("CCCCCCCCCCCCCCCCCCCC(N)=O", "<", 5.00),
    ("CCCCC/C=C\\C/C=C\\CCCCCCCCCCCC(=O)NCc1ccc(O)c(OC)c1", "=", 5.74),
    ("CCCCCCCC/C=C\\CCCCCCCC(N)=O [OLEAMIDE]", "=", 5.68),
    ("CCCCCCCCCCCCCCCC(=O)N/N=C/c1ccc(O)c(OC)c1", "=", 5.22),
    ("CCCCCCCC/C=C\\CCCCCCCC(=O)NCc1ccc(O)c(OC)c1 [OLVANIL]", "=", 5.77),
    ("CCCCCCCCCCCCCCCCCCCC(=O)NCCO", "<", 5.00),
    ("CCCCCCCC/C=C\\CCCCCCCC(=O)N/N=C/c1ccc(O)c(OC)c1", "=", 5.52),
    ("CCCCCC[C@@H](O)C/C=C/CCCCCCCC(=O)NCc1ccc(O)c(OC)c1", "=", 5.12),
    ("CCCCCCCC/C=C\\CCCCCCCC[Se]C[C@H](N)C(=O)NCc1ccc(O)c(OC)c1", "=", 6.01),
    ("CCCCCC/C=C\\CCCCCCCC(=O)NCCO", "=", 5.77),
    ("CCCCCCCCCCCCCCCC(N)=O [PALMITAMIDE]", "<", 5.00),
]

###

- target.or.test.system: Transient receptor potential cation channel subfamily V member 2 (Rattus norvegicus)
- Sequence (Q9WUD2 whole entry): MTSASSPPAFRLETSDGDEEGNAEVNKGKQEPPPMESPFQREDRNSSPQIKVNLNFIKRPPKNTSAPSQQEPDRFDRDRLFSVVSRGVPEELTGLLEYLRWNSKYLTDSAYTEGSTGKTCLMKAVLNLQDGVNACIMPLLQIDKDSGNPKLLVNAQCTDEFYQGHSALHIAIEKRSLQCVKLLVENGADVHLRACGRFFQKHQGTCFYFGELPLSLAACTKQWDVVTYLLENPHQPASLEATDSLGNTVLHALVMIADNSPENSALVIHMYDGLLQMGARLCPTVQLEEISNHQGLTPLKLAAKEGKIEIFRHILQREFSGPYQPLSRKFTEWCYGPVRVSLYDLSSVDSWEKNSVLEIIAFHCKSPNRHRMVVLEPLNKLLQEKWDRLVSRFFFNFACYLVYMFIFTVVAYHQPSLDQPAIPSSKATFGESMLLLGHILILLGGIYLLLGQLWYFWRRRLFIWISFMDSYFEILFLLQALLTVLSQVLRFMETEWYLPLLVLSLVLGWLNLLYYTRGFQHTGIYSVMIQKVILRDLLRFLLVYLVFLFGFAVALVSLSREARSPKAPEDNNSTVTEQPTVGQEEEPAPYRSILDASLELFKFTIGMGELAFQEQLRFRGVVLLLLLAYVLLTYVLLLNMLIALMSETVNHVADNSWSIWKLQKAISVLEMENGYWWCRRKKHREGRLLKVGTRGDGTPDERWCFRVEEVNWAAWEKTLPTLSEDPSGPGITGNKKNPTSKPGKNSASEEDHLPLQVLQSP
- method.summary: Antagonist activity at recombinant rat TRPV2 expressed in HEK293 cells assessed as inhibition of LPC-induced Ca2+ levels preincubated for 5 mins followed by agonist addition by Fuo-4-AM based spectrofluorimetry
- Assay type: cell-based
endpoint.label: IC50 (nM)

# molecule, qualifier.sign, quantitative.readout
measured = [
    ("CCCCCCCCCCCCCCCC(=O)NCc1ccc(O)c(OC)c1", ">", 10000),
    ("CCCCCCCCCCCCCCCCOC(=O)CSC[C@H](N)C(=O)NCc1ccc(O)c(OC)c1", "=", 1400),
    ("CCCCCCCCCCCCCCCCSCCC(=O)NCc1ccc(O)c(OC)c1", "=", 3800),
    ("CCCCCCCC/C=C\\CCCCCCCC(=O)NCCO [OLEOYLETHANOLAMIDE]", "=", 1800),
    ("CCCCC/C=C\\C/C=C\\CCCCCCCCCCCC(=O)NCc1ccc(O)c(OC)c1", "=", 820),
    ("CCCCCC[C@@H](O)C/C=C/CCCCCCCC(=O)NCc1ccc(O)c(OC)c1", ">", 10000),
    ("CCCCC/C=C\\C/C=C\\C/C=C\\C/C=C\\CCCC(=O)NCCO [ANANDAMIDE]", "=", 8600),
    ("CC/C=C\\C/C=C\\C/C=C\\C/C=C\\C/C=C\\CCCC(=O)NCCO", ">", 10000),
    ("CCCCCCCCCCCCCCCCCCCC(=O)NCCO", ">", 10000),
    ("CCCCCCCC/C=C\\CCCCCCCC(N)=O [OLEAMIDE]", "=", 2100),
    ("CCCCCCCCCCCCCCCC[Se]C[C@H](N)C(=O)NCc1ccc(O)c(OC)c1", "=", 1200),
    ("CCCCCCCCCCCCCCCC(=O)N/N=C/c1ccc(O)c(OC)c1", "=", 280),
    ("CCCCCCCC/C=C\\CCCCCCCCSCCC(=O)NCc1ccc(O)c(OC)c1", "=", 2500),
    ("CCCCCC[C@H](C/C=C\\CCCCCCCCSCCC(=O)NCc1ccc(O)c(OC)c1)OC(=O)Cc1ccccc1", ">", 10000),
    ("CCCCCCCC/C=C\\CCCCCCCCCCCC(=O)NCc1ccc(O)c(OC)c1", "=", 490),
    ("CCCCC/C=C\\C/C=C\\CCCCCCCC(=O)NCCO [LINOLEOYLETHANOLAMIDE]", "=", 1400),
    ("CCCCCC[C@@H](O)C/C=C\\CCCCCCCCSCCC(=O)NCc1ccc(O)c(OC)c1", ">", 10000),
    ("CCCCCCCCCCCCCCCC(N)=O [PALMITAMIDE]", ">", 10000),
    ("CCCCC/C=C\\C/C=C\\CCCCCCCC[Se]CCC(=O)NCc1ccc(O)c(OC)c1", "=", 1400),
    ("CCCCC/C=C\\C/C=C\\CCCCCCCCCCCC(=O)O", ">", 10000),
    ("CCCCCCCC/C=C\\CCCCCCCCCCCC(=O)NCCO", "=", 740),
    ("CCCCCCCCCCCCCCCCOC(=O)CSCCC(=O)NCc1ccc(O)c(OC)c1", ">", 10000),
]
